# Test system: NOMO1
# test_method_notes: cell viability relative to DMSO control; higher = less cytotoxic
# settings: RPMI 5 mM glucose + 10% dialyzed FBS; 48 h; 0.19 µM
Each entry below carries its reported cell viability.
Give the value, in units of %, as a plain number.

Answered examples (4):
# molecule, target_desc, cell viability, %
data = [
    ("C/C(=N\\NC(=S)N1CCC1)c1ccccn1", "NOMO1", 8.08),
    ("CN(C)c1ccc2nc3ccc(N(C)C)cc3[s+]c2c1", "NOMO1", 86.7),
    ("C=C1C(=O)OC(CCCCCCCC)C1C(=O)O (stereo not given)", "NOMO1", 136),
    ("CCN1\\C=C(\\C(O)=O)C(=O)C2=C1N=C(N3CCNCC3)C(=C2)F", "NOMO1", 74.1),
]

Proceeding to the next molecule to report its cell viability.
Suppose we examine the molecule `CC1=C(/C=C/C(C)=C/C=C/C(C)=C\C(=O)O)C(C)(C)CCC1` ; what cell viability value has been reported?
87.9

###

Each entry below carries its reported cell viability.
# System: SEM cells
# test_method_notes: cell viability relative to DMSO control; higher = less cytotoxic
# settings: HPLM + 10% dialyzed FBS; 48 h; 0.19 µM
Give the value, in units of %, as a plain number.

Answered examples (5):
# compound, cell viability, %
rows = [
    ("COc1cccc2c1C(=O)c1c(O)c3c(c(O)c1C2=O)C[C@@](O)(C(=O)CO)C[C@@H]3O[C@H]1C[C@H](N)[C@H](O[C@H]2CCCCO2)[C@H](C)O1", 129),
    ("CN(C)C1=CC(=CC=C1)C\\2=C\\3C(=O)N(NC3=C/C(=O)N2C)C4=CC=CC=C4Cl", 103),
    ("CCOC(=O)[C@@]1(CCCCCCOc2ccc(Cl)cc2)CO1", 95.9),
    ("O=C([O-])C[C@H](O)C[C@H](O)/C=C/c1c(C2CC2)nc2ccccc2c1-c1ccc(F)cc1", 90),
    ("CN(C)c1ccc2nc3ccc(N(C)C)cc3[s+]c2c1", 117),
]

What value of cell viability on SEM cells does `NC[C@@H]1O[C@H](O[C@H]2[C@@H](O)[C@H](O[C@@H]3[C@@H](O)[C@H](N)C[C@H](N)[C@H]3O[C@H]3O[C@H](CN)[C@@H](O)[C@H](O)[C@H]3N)O[C@@H]2CO)[C@H](N)[C@@H](O)[C@@H]1O.O=S(=O)(O)O.O=S(=O)(O)O.O=S(=O)(O)O` have?
99.4

What value of cell viability on SEM cells does N[C@H]2CN(CC12CC1)c3c(F)cc4c(c3Cl)[N@@](C=C(C4=O)C(=O)O)C5C[C@H]5F (stereo partly drawn) have?
86.4

What value of cell viability on SEM cells does `COc1cc2ncn(-c3cc(OCc4ccccc4[S+](C)(=O)[O-])c(C#N)s3)c2cc1OC` have?
98.3

What value of cell viability on SEM cells does `CCn1c(-c2nonc2N)nc2c(C#CC(C)(C)O)ncc(OC[C@H]3CCCNC3)c21` have?
82.7

What value of cell viability on SEM cells does `CN1CCN(c2c(F)cc3c(=O)c(C(=O)O)cn(CCF)c3c2F)CC1` have?
105

What value of cell viability on SEM cells does `Cc1cn[nH]c1` have?
122

What value of cell viability on SEM cells does `CCOC(=O)N1c2ccc(C(F)(F)F)cc2[C@@H](N(Cc2cc(C(F)(F)F)cc(C(F)(F)F)c2)C(=O)OC)C[C@H]1CC` have?
113

What value of cell viability on SEM cells does `COC(=O)Nc1nc2cc(C(=O)c3ccc(F)cc3)ccc2[nH]1` have?
97.9

What value of cell viability on SEM cells does `C[C@H]1C[C@H]2[C@@H]3CC[C@](O)(C(=O)CO)[C@@]3(C)C[C@H](O)[C@@H]2[C@@]\4(C)/C=C\C(=O)\C=C14` have?
75.6

###

Each entry below carries its reported cell viability.
# System: SEM cells
# test_method_notes: cell viability relative to DMSO control; higher = less cytotoxic
# settings: RPMI 5 mM glucose + 10% FBS; 48 h; 46.1 µM
Give the value, in units of %, as a plain number.

Answered examples (5):
# compound, assay_result
records = [
    ("COc1cc(CCc2cc(NC(=O)c3ccc(N4C[C@@H](C)N[C@@H](C)C4)cc3)n[nH]2)cc(OC)c1", 19.5),
    ("O=C(CS(=O)Cc1ccco1)NC/C=C\\COc1cc(CN2CCCCC2)ccn1 (centres undefined)", 103),
    ("O=C([O-])C[C@H](O)C[C@H](O)/C=C/c1c(C2CC2)nc2ccccc2c1-c1ccc(F)cc1", 10.7),
    ("COc1cc([C@@H]2c3cc4c(cc3[C@H](O)[C@H]3COC(=O)[C@@H]23)OCO4)cc(OC)c1OC", 6.13),
    ("COc1ccc(C(=O)c2c(C)n(CCN3CCOCC3)c3ccccc23)cc1", 66.5),
]

Suppose we examine the compound `CC[N+](CC)(CC)CCOc1cccc(OCC[N+](CC)(CC)CC)c1OCC[N+](CC)(CC)CC` ; what cell viability value has been reported?
111

Suppose we examine the compound `COc1cccc2c1C(=O)c1c(O)c3c(c(O)c1C2=O)C[C@@](O)(C(=O)CO)C[C@@H]3O[C@H]1C[C@H](N)[C@H](O[C@H]2CCCCO2)[C@H](C)O1` ; what cell viability value has been reported?
59

Suppose we examine the compound C=C1C(=O)OC(CCCCCCCC)C1C(=O)O (centres undefined) ; what cell viability value has been reported?
113

Suppose we examine the compound `CN1C(=O)C(=C\C2=C1N=C(NC3=CC=CC(=C3)C(O)=O)N=C2)/C4=C(Cl)C=CC=C4Cl` ; what cell viability value has been reported?
25

###

# Tested on: SEM cells
# test_method_notes: cell viability relative to DMSO control; higher = less cytotoxic
# settings: RPMI 5 mM glucose + 10% dialyzed FBS; 48 h; 0.000781 µM
measured_property: cell viability (%)
Give the value, in units of %, as a plain number.

Answered examples (4):
# compound, cell viability (%)
measured = [
    ("Cc1ccccc1C(OCCN(C)C)c1ccccc1 (stereo not given)", 99.3),
    ("NC[C@@H]1O[C@H](O[C@H]2[C@@H](O)[C@H](O[C@@H]3[C@@H](O)[C@H](N)C[C@H](N)[C@H]3O[C@H]3O[C@H](CN)[C@@H](O)[C@H](O)[C@H]3N)O[C@@H]2CO)[C@H](N)[C@@H](O)[C@@H]1O.O=S(=O)(O)O.O=S(=O)(O)O.O=S(=O)(O)O", 109),
    ("Cc1nc2cc(C(=O)N3CCC4(CC3)CC(=O)c3c(cnn3C(C)C)C4)ccc2[nH]1", 50),
    ("C[C@@H]1CCN(C(=O)CC#N)C[C@@H]1N(C)c1ncnc2[nH]ccc12", 112),
]

Suppose we examine the compound `CCC[S+](=O)([O-])Nc1ccc(F)c(C(=O)c2c[nH]c3ncc(Cl)cc23)c1F` ; what cell viability value has been reported?
107

###

# System: SEM cells
# test_method_notes: cell viability relative to DMSO control; higher = less cytotoxic
# settings: HPLM + 10% dialyzed FBS; 48 h; 0.0632 µM
Each entry below carries its reported cell viability.
Give the value, in units of %, as a plain number.

# structure_notation, unit_symbol, assay_result
measured = [
    ("OC1=CC=C(C=C1)\\C2=C\\OC3=C(C(=CC(=C3)O)O)C2=O", "%", 108),
]

What value of cell viability on SEM cells does `CC(C)(S)[C@@H](N)C(=O)O` have?
72.8

What value of cell viability on SEM cells does `OC1=CC2=C(C=C1)C(=O)\C(=C(O2)\C3=CC(=C(O)C=C3)O)O` have?
102

What value of cell viability on SEM cells does `Cc1ccc([N+](=O)[O-])cc1[S+](=O)([O-])N(C)/N=C/c1cnc2ccc(Br)cn12` have?
74.5

What value of cell viability on SEM cells does `COc1cc(CCc2cc(NC(=O)c3ccc(N4C[C@@H](C)N[C@@H](C)C4)cc3)n[nH]2)cc(OC)c1` have?
127

###

# System: SEM cells
# test_method_notes: cell viability relative to DMSO control; higher = less cytotoxic
# settings: HPLM + 10% dialyzed FBS; 48 h; 46.1 µM
Threshold 90%. cell viability below it: Condition met. cell viability at it or above: Condition not met.

# compound, assigned_label
records = [
    ("CN1C(=O)C(=C\\C2=C1N=C(NC3=CC=CC(=C3)C(O)=O)N=C2)/C4=C(Cl)C=CC=C4Cl", "Condition met"),
    ("CC1(CN2CCC(n3c(=O)[nH]c4ccccc43)CC2)OCc2ccccc2-n2cccc21 (centres undefined)", "Condition met"),
    ("CN(C)c1ccc2nc3ccc(N(C)C)cc3[s+]c2c1", "Condition met"),
    ("CCCC(C)(COC(N)=O)COC(=O)NC(C)C (centres undefined)", "Condition not met"),
    ("O=C(CCCCCCC(=O)Nc1cccnc1)NO", "Condition met"),
]

cell viability under 90%? Item: `C[C@@H]1CCN(C(=O)CC#N)C[C@@H]1N(C)c1ncnc2[nH]ccc12`
Condition met

cell viability under 90%? Item: `CCn1c(-c2nonc2N)nc2c(C#CC(C)(C)O)ncc(OC[C@H]3CCCNC3)c21`
Condition met

cell viability under 90%? Item: C=C1C(=O)OC(CCCCCCCC)C1C(=O)O (centres undefined)
Condition not met

cell viability under 90%? Item: `Cc1c(-c2cccc3c(CCCOc4cccc5ccccc45)c(C(=O)O)n(Cc4cccnc4)c23)c(COc2ccc(N3CCN([S+](=O)([O-])N(C)C)CC3)cc2)nn1C`
Condition met
